The values you see were collected from ChEMBL document CHEMBL5120808.

- ASSAY TARGET: GABA-B receptor (Homo sapiens, UniProt O75899+Q9UBS5)
- Sequence (Q9UBS5 whole entry): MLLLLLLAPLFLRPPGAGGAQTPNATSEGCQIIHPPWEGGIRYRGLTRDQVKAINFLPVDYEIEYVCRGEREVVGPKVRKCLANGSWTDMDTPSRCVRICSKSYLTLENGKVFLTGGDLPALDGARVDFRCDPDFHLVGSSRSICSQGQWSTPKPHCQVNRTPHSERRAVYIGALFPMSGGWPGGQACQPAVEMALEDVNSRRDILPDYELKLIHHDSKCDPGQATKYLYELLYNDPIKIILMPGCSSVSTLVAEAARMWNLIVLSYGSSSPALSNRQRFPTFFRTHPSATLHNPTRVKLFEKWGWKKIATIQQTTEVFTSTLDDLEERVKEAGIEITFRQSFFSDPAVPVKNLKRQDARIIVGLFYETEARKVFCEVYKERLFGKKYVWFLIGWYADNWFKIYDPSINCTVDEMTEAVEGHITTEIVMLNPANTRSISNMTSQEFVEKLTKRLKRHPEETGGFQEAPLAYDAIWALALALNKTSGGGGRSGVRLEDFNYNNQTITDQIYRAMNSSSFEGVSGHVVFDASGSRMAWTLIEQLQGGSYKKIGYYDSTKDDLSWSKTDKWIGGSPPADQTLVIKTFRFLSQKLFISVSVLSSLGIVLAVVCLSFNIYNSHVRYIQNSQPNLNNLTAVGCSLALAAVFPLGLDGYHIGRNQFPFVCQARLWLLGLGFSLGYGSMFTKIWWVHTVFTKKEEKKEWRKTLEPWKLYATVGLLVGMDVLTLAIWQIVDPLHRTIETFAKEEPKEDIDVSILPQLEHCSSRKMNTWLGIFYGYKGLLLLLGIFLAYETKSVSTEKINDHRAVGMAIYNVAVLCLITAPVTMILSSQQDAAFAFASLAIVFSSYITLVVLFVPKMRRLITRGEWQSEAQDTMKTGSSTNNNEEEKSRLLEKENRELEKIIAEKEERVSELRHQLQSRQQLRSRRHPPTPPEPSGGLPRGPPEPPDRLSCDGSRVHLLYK
- Sequence (O75899 whole entry): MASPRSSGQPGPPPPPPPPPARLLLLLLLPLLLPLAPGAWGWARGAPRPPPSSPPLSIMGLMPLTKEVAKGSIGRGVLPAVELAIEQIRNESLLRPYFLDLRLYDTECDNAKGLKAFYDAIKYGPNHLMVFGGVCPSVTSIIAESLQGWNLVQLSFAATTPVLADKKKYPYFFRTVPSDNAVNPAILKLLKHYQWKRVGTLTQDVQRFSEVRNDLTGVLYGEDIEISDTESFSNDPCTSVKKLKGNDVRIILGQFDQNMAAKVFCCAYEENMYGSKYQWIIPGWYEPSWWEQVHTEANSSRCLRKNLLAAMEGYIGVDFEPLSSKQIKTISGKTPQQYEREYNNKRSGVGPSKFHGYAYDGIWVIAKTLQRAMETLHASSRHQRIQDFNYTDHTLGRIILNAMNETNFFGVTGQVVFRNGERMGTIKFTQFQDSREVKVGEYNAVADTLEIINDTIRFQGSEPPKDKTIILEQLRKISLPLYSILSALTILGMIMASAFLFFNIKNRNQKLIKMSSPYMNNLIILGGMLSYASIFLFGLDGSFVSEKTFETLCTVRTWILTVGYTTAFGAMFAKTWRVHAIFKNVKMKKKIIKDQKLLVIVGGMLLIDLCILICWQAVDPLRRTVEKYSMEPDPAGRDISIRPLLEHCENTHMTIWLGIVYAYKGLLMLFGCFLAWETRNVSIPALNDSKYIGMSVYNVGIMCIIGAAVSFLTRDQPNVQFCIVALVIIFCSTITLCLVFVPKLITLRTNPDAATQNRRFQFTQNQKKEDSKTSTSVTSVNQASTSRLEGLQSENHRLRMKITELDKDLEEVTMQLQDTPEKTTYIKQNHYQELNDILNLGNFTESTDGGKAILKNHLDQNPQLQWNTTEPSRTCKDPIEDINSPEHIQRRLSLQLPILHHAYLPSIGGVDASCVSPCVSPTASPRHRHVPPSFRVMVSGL
- PROCEDURE TEXT: Positive allosteric modulation of GABA-B receptor (unknown origin) assessed as stimulation of [35S]GTPgammaS binding by [35S]GTPgammaS binding assay
MEASUREMENT LABEL: EC50 (µM)

// worked examples, EC50 included
{"columns": ["SMILES ENTRY", "UNIT OF MEASUREMENT", "EC50"],
 "data": [
  ["Cc1nc(N[C@@H]2C[C@H]3CC[C@@H]2C3)c2cc(-c3ccc(Cl)c(Cl)c3)ccc2n1", "µM", 0.419],
  ["Cc1nc(N[C@@H]2C[C@H]3CC[C@@H]2C3)c2cc(-c3ccc(Cl)cc3)ccc2n1", "µM", 0.444],
  ["Cc1nc(N[C@@H]2C[C@H]3CC[C@@H]2C3)c2cc(-c3cccc(C(F)(F)F)c3)ccc2n1", "µM", 0.142],
  ["FC(F)(F)c1ccc(-c2ccc3nc(Cl)nc(N[C@@H]4C[C@H]5CC[C@@H]4C5)c3c2)cc1", "µM", 0.637],
  ["FC(F)(F)c1cccc(-c2ccc3nc(Cl)nc(N[C@@H]4C[C@H]5CC[C@@H]4C5)c3c2)c1", "µM", 0.09]
]}

P: Cc1nc(N[C@@H]2C[C@H]3CC[C@@H]2C3)c2cc(-c3cc(Cl)cc(Cl)c3)ccc2n1
Q: Cc1nc(N[C@@H]2C[C@H]3CC[C@@H]2C3)c2cc(-c3ccccc3Cl)ccc2n1
R: Clc1ccc(-c2ccc3nc(Cl)nc(N[C@@H]4C[C@H]5CC[C@@H]4C5)c3c2)cc1
S: Cc1nc(N[C@@H]2C[C@H]3CC[C@@H]2C3)c2cc(-c3ccc(C(F)(F)F)cc3)ccc2n1
T: Clc1nc(N[C@@H]2C[C@H]3CC[C@@H]2C3)c2cc(-c3ccc(Cl)c(Cl)c3)ccc2n1
// smallest EC50 at index 0, largest at the end Write the labels out in the order the request specifies.
P, R, T, Q, S
(P: 0.097 µM, R: 0.208 µM, T: 0.341 µM, Q: 0.496 µM, S: 0.771 µM)

P: Fc1ccc(-c2ccc3nc(Cl)nc(N[C@@H]4C[C@H]5CC[C@@H]4C5)c3c2)cc1
Q: Cc1nc(N[C@@H]2C[C@H]3CC[C@@H]2C3)c2cc(-c3cccc(Cl)c3)ccc2n1
Input pair: P , Q . Output: entry with lower EC50. // respond with label for picked entry
Q
